All figures here come from paper PMC10714400.

System: E. cloacae
Cond: Table S3; […] MH at pH 8.5
Where a SMILES comes first, the peptide text is derived from it. [ ]: non-standard residue; d: D form. Nleu = CC(C)CNCC(=O)O; Nlys = NCCCCNCC(=O)O
Recorded MIC E. cloacae, one value per entry.
Form entry: value (µg/mL) — number only.

{"Compound": "CC(C)C[C@H](NC(=O)[C@H](CC(C)C)NC(=O)[C@H](CC(C)C)NC(=O)[C@@H](CCCCN)NC(=O)[C@H](CC(C)C)NC(=O)[C@H](CC(C)C)NC(=O)[C@@H](CCCCN)NC(=O)[C@H](CC(C)C)NC(=O)[C@H](CC(C)C)NC(=O)[C@@H](CCCCN)NC(=O)[C@H](N)CCCCN)C(N)=O [ln69, kkLLkLLkLLL, reference compound] (H-[dK][dK]LL[dK]LL[dK]LLL-NH2)", "Unit string": "µg/mL", "Observed result": 2}
{"Compound": "CC(C)CN(CC(N)=O)C(=O)CN(CC(C)C)C(=O)CN(CC(C)C)C(=O)CN(CCCCN)C(=O)CN(CC(C)C)C(=O)CN(CC(C)C)C(=O)CN(CCCCN)C(=O)CN(CC(C)C)C(=O)CN(CC(C)C)C(=O)CN(CCCCN)C(=O)CNCCCCN [EB11, kkllkllklll] (H-[Nlys][Nlys][Nleu][Nleu][Nlys][Nleu][Nleu][Nlys][Nleu][Nleu][Nleu]-NH2)", "Unit string": "µg/mL", "Observed result": 16}

// below: MIC E. cloacae requested for another compound
query: Please give the measured MIC E. cloacae for this compound: CC(C)C[C@H](NC(=O)[C@H](CC(C)C)NC(=O)[C@H](CC(C)C)NC(=O)[C@H](CCCCN)NC(=O)[C@H](CC(C)C)NC(=O)[C@H](CC(C)C)NC(=O)CN(CCCCN)C(=O)[C@H](CC(C)C)NC(=O)[C@H](CC(C)C)NC(=O)CN(CCCCN)C(=O)CNCCCCN)C(N)=O [EB6, kkLLkLLKLLL] (H-[Nlys][Nlys]LL[Nlys]LLKLLL-NH2)
result: 4
